Assay: label from the status in PepcDB records
endpoint: protein production

sequence_record=MDSDADGGETVSNFSENSTDFEETEEYIVERILDRRHYMGQLQYLVKWLDYSDEDNTWESAADLDCHSLIDSIESQKSLKRGQELNNQYETKAKRLKIDP endpoint="protein production" observed_value=failed
sequence_record=LDVGCNQGGFLRKLYDTTPFKEGVGIDLARLSLEKAETLKGERPLTYYLTDKPQETNRTFDTAVSTSVLYLIEDIPQHAQDLKEVLKPGGVYYASFADLTNNPSRQFMDDTINQYGATPSQNHSLKHIVDSFVDAGFEVAVMKEPVPDVIDLTHYSDFYLSPNDYLQTLYEESFLIKASVKEGIGK endpoint="protein production" observed_value=failed
sequence_record=MTAALSSNFLLVAFFLYLAATIFYAVSIMGKKWRNKEGEMKGNRWGTFGYYSAIIALLFALGYFITRWMVAGFAPVSNMFEYVTFFGICIGLAFVIINAIYRSNILGLFTMPTVMLMIAYASVFPSEVAPLIPALQSNWLALHVTTVALGQGILAVSFASGLVYLIRTIDYSIQSWKTFWLEFILYSVITVVGFILITYTFQAMNYEAKFNYVNENDVEATMEYHLPPIVGPHEGQLISETGNQPLVNMPAWIKSDQLNTVIWSFLVGLVLYLLLYLVFRKPVGAILQPIVKRVSPQLVDEISYRAIAIGFPVFTLGGLIFAMIWAQIAWTRFWGWDPKEVWALITFLFYAAYLHLRLSKGWHGERSAWLCVIGFAIIMFNLVFVNLVIAGLHSYAGGM endpoint="protein production" observed_value=failed

----------
Test: label from the status in PepcDB records
endpoint: protein production

sequence_record=MKNFFNHIELKFANLLSKISFMLLMVVGLLMVYFLFREVYNLVLLAFLSESEVHYYDILESILSFFIFFEFLTLIITSLRNKGHVSLIFLLSLGITSLIRLLLTYHERLVGVLLIASAILILIIGVFVLKKFVFPNDDTADYF observed_value=failed
sequence_record=MCKLIKCELLKLKSMLGAILAFFFPLLLVSIGLLNIYTGSVKISGTSEMWNAIYVQSSSLYGGILFPVFLSALVSLQWRVEFKNNNINNILITDKSHKDIYLSKIFSTFVIAFINIILYIIIIFISVKVLLPKETVKAFIFYGPIIGLLFSLPLICIQHFLSMNFKNFALPLVIGIVLSLPNFVASCYSFSTFIPYSYICKGMFFNVKNSLNVECPIYIFILTALIFVASVSLGTKVFKNKEFR observed_value=failed
sequence_record=MDDLNPLAGTAHLLEEVDKKLMVLLRDGRTLIGYLRSVDQFANLVLQRTIERIHVGNEYGDIPRGVFIIRGENVVLLGEIDREKEQKLPLKEISVDEILDAQRREQEQRQEKHRLVSKALKERGLAVDANIINEDFC observed_value=failed
sequence_record=MQTQIKVRGYHLDVYQHVNNARYLEFLEEARWDGLENSDSFQWMTAHNIAFVVVNININYRRPAVLSDLLTITSQLQQLNGKSGILSQVITLEPEGQVVADALITFVCIDLKTQKALALEGELREKLEQMVK observed_value="not failed"
sequence_record=MDEILARAGIFQGVEPSAIAALTKQLQPVDFPRGHTVFAEGEPGDRLYIIISGKVKIGRRAPDGRENLLTIMGPSDMFGELSIFDPGPRTSSATTITEVRAVSMDRDALRSWIADRPEISEQLLRVLARRLRRTNNNLADLIFTDVPGRVAKQLLQLAQRFGTQEGGALRVTHDLTQEEIAQLVGASRETVNKALADFAHRGWIRLEGKSVLISDSERLARRAR observed_value="not failed"
sequence_record=MGHHHHHHSHMPQFSPSYSFPVQIYYEDTDFSGVVYHPNFLKYFERAREHVIGAEQLRNLWQQQQLGFAVYRSDMLCHEGVEFADIIDIRTKFYFESKYRTVWHQEIWRPNGKKPAVTATIEMVCMNQARQLAPMPAELITQLSLGM observed_value="not failed"
sequence_record=MRLLAILILCILVAACDRQAATEELTEARSAFANREWNDAERLLEGYLRRNPEGAQRWEAWNLLVEVAHRVRNDERATVELLETMYLENGSNPERAYDILTRLGELLEAGRDFRRAAEVWPRVLELPGLTPDTRALVSRRLARILVMQRRFPEAEERLKACLDTEGLSTEGRAGCLYDLADLNVASEHLDVAVDLATTLVGLEGLTPELRSQAGFLLADALEQRGRFAEALERFEALRGVYPNDMVIDTRVRHLKGRLGRK observed_value=failed
sequence_record=MGLLDHLWDDTVAGPRPENGLGKLRKHHTFSFRPSSGNDQSEAGSARSYGEDSLPEEAVKVTRSIMIIKPPGYQGSSAPASPAGSTPPLSPFSPPLSPFSANAGGKEPFRFRRRSTSDAFEKAAGGSETGPRSSPPTYGM observed_value=failed
sequence_record=MTKGESTMQRIAVLSDAETATGYRLAGATVIEASPEDALRTLEQAITDGGYGLIAVDTGLIPDPATATARIMRGRDLPILLPIPSLRDAFSSDTVDAKAYMGKLVRDTIGFDIKLLEHHHHHH observed_value="not failed"
sequence_record=MVAKQLSIFLENKSGRLTEVTEVLAKENINLSALCIAENADFGILRGIVSDPDKAYKALKDNHFAVNITDVVGISCPNVPGALAKVLGFLSAEGVFIEYMYSFANNNVANVVIRPSNMDKCIEVLKEKKVDLLAASDLYKL observed_value="not failed"
sequence_record=MSSDDAWTAAALPDQSGRRVVVTGANSGLGFEATRAFARAGAHVVMACRSTERGEDARDDIVAELPGASLTVHELDLAALDSVAAFADWFTAEFDSLHVLANNAGVMAIPRSETADGFETQFGVNHLGHVALTAGLLGVLRRTSGETRVVTQSSGAHRRGRIDFEDLQHEAEYGKWEAYSQSKLANLLFAYELDRRLRAASASVTSVACHPGYAATNLQLRGPQAAGSRLRLLAMRAANALVGQSAEQGAWPLLYAATNPSIDGGEYIGPGGVLNMRGHPERQQPSARSRDEDTARRLWTVSADRTGVDFDLPDPA observed_value=failed
sequence_record=VLLAITTGLVASLVNAKAYKGAEIFTNDAYLYGRYEIRMRVANASGILSTFFTYKNGSEVGNTFWEEIDIEVFGKNNATQWQSNIILGSSRPTIHTEEIHTADTSLADAYHTYVVEWTPDYVAWFLDGVEVRRITGTSTVTSLTNAQSLRFNIWSSESVPWVGAWDDSVLPVYQFVNYIDYKAYNATTKTFEGGWRDDFNNFDSSRWGKANWSFDMNRVDFAPENALVKDGILVLALTKENATGFNGTPPADEPASSSSSVAASSTPASSIAASSIAASVAASSVAVATSSVAASKASGGGSGGGAINGMWLLMLGSFVLLGWVHNQRQSHQQHQ observed_value=failed
sequence_record=MYEEWKIVKREAPILGNDQLIENIWKMKREDSPYDIISLHKVNLIGGGNDAVLILPGTWSSGEQLVTISWNGVHYTIPDYRKSIVLYLARNGFNVYTIDYRTHYVPPFLKDRQLSFTANWGWSTWISDIKEVVSFIKRDSGQERIYLAGESFGGIAALNYSSLYWKNDIKGLILLDGGPTKHGIRPKFYTPEVNSIEEMEAKGIYVIPSRGGPNNPIWSYALANPDMPSPDPKYKSISDFLMDSLYVTGSANPYDYPYSKKEDMFPILASFDPYWPYRLSLERDLKFDYEGILVPTIAFVSERFGIQIFDSKILPSNSEIILLKGYGHLDVYTGENSEKDVNSVVLKWLSQQR observed_value="not failed"
